# Tested on: tRNA
# TEST DESCRIPTION: Aminoacylation assay (tRNA charging)
# Type: biochemical
# STUDY CONDITIONS: nsAA pAzF

{"MOLECULE": "pAzFRS.2.t1: pAcFRS variant E107T, F108Y, Q109M, R257G, SEQ ID NO: 14 (protein) MDEFEMIKRNTSEIISEEELREVLKKDEKSALIGFEPSGKIHLGHYLQIKKMIDLQNAGFDIIILLADLHAYLNQKGELDEIRKIGDYNKKVFEAMGLKAKYVYGSTYMLDKDYTLNVYRLALKTTLKRARRSMELIAREDENPKVAEVIYPIMQVNGCHYRGVDVAVGGMEQRKIHMLARELLPKKVVCIHNPVLTGLDGEGKMSSSKGNFIAVDDSPEEIRAKIKKAYCPAGVVEGNPIMEIAKYFLEYPLTIKGPEKFGGDLTVNSYEELESLFKNKELHPMRLKNAVAEELIKILEPIRKRL", "kcat": "0.71 ± 0.13 ×10^−3 s^−1"}
